These measurements were taken from patent US20240301056A1.

biological target: Human L1CAM (purified protein) (human) (UniProt P32004); experiment: BLI, Octet RED384; antibody captured on AHC sensor, human L1CAM 50-0.78 nM as analyte

binder	kon
Ab4H6 antibody (antibody, human IgG1, kappa, V domains shown, Whole human IgG1, kappa; also called Anti-L1CAM ("Ab4H6"); Ab4H6 mutant) VH: EVQLVESGGGVVQPGGSLRLSCAASGFTFSRFGMHWVRQAPGKGLEWVAFISNEGSNKYYADSVKGRFTISRDNSANTLYLQMNSLRAEDTAVYYCARGRAYGSGSLFDPWGQGTLVTVSS VL: DIQLTQSPSSLSASVGDRVTITCRASRTISSYVNWYRQRPGKAPESLIYAASNLHSGVPSRFSGSGSGTDFTLTISSLQPEDFATYYCQQSLHFYPWTFGQGTKLEIKR	373000 M⁻¹ s⁻¹
Ab5D12 antibody (antibody, human IgG1, kappa, V domains shown, Whole human IgG1, kappa; also called Anti-L1CAM ("Ab5D12"); Ab5D12 mutant) VH: EVQLVESGGGVVQPGGSLRLSCAASGFTFSRFGMHWVRQAPGKGLEWVAFISNEGSNKYYADSVKGRFTISRDNSANTLYLQMNSLRAEDTAVYYCARGRAYGSGSLFDPWGQGTLVTVSS VL: DIQLTQSPSSLSASVGDRVTITCRASRTISSYVNWYRQRPGKAPESLIYAASNLHSGVPSRFSGSGSGTDFTLTISSLQPEDFATYYCQQSLVWYPWTFGQGTKLEIKR	411000 M⁻¹ s⁻¹
Ab612 antibody (antibody, human IgG1, kappa, V domains shown, Whole human IgG1, kappa, purified on protein A; also called Anti-L1CAM ("Ab612")) VH: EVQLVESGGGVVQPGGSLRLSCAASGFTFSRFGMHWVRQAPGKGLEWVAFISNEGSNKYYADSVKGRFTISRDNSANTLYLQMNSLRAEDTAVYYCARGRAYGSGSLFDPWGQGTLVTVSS VL: DIQLTQSPSSLSASVGDRVTITCRASRTISSYVNWYRQRPGKAPESLIYAASNLHSGVPSRFSGSGSGTDFTLTISSLQPEDFATYYCQQSIGRGPVTFGQGTKLEIKR	313000 M⁻¹ s⁻¹
Ab4H5 antibody (antibody, human IgG1, kappa, V domains shown, Whole human IgG1, kappa; also called Anti-L1CAM ("Ab4H5"); Ab4H5 mutant) VH: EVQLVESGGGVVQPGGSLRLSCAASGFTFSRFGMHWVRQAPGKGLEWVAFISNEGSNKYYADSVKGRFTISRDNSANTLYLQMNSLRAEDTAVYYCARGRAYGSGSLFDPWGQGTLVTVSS VL: DIQLTQSPSSLSASVGDRVTITCRASRTISSYVNWYRQRPGKAPESLIYAASNLHSGVPSRFSGSGSGTDFTLTISSLQPEDFATYYCQQAGFYTPWTFGQGTKLEIKR	363000 M⁻¹ s⁻¹
Ab2C2 antibody (antibody, human IgG1, kappa, V domains shown, Whole human IgG1, kappa; also called Anti-L1CAM ("Ab2C2"); Ab2C2 mutant) VH: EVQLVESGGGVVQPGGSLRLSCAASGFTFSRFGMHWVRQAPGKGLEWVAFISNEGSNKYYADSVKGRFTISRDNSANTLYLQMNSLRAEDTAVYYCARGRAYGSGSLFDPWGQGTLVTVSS VL: DIQLTQSPSSLSASVGDRVTITCRASRTISSYVNWYRQRPGKAPESLIYAASNLHSGVPSRFSGSGSGTDFTLTISSLQPEDFATYYCQQAGFYSPWTFGQGTKLEIKR	344000 M⁻¹ s⁻¹
